Tested on: lipid peroxidation (MDA formation) in rat liver microsomes
Details: 1*10^-6 M; liver microsomes of phenobarbital-pretreated rats, NADPH/carbon tetrachloride, pH 7.4, 15 minutes at 37° C.

compound	test.system	percentage inhibition (MDA formation) / %
CCN(CC)c1ccc(N(CC)CC)c(N2CCN(CC#C[C@]3(O)CC[C@H]4[C@@H]5C=C(C)C6=CC(=O)C=C[C@]6(C)[C@H]5[C@@H](O)C[C@@]43C)CC2)n1	lipid peroxidation (MDA formation) in rat liver microsomes	49
C[C@]12CCC(=O)C=C1C=C[C@@H]1[C@@H]2[C@@H](O)C[C@@]2(C)[C@H]1CC[C@@]2(O)C#CCN1CCN(c2cc(N3CCCC3)nc(N3CCCC3)n2)CC1	lipid peroxidation (MDA formation) in rat liver microsomes	16
CCN(CC)c1ccc(N2CCN(CC#C[C@]3(O)CC[C@H]4[C@@H]5C=C(C)C6=CC(=O)C=C[C@]6(C)[C@H]5[C@@H](O)C[C@@]43C)CC2)nc1N(CC)CC	lipid peroxidation (MDA formation) in rat liver microsomes	48
CC1=C[C@@H]2[C@H]([C@@H](O)C[C@@]3(C)[C@H]2CC[C@@]3(O)C#CCN2CCN(c3cc(N4CCCC4)nc(N4CCCC4)n3)CC2)[C@@]2(C)C=CC(=O)C=C12	lipid peroxidation (MDA formation) in rat liver microsomes	22

---

Tested on: lipid peroxidation (MDA formation) in rat liver microsomes
Conditions: 1*10^-5 M; liver microsomes of phenobarbital-pretreated rats, NADPH/carbon tetrachloride, pH 7.4, 15 minutes at 37° C.
The entries below are paired with their reported percentage inhibition (MDA formation).

compound	test.system	unit.info	percentage inhibition (MDA formation)
CCN(CC)c1ccc(N2CCN(CC#C[C@]3(O)CC[C@H]4[C@@H]5C=C(C)C6=CC(=O)C=C[C@]6(C)[C@H]5[C@@H](O)C[C@@]43C)CC2)nc1N(CC)CC	lipid peroxidation (MDA formation) in rat liver microsomes	%	93
CC1=C[C@@H]2[C@H]([C@@H](O)C[C@@]3(C)[C@H]2CC[C@@]3(O)C#CCN2CCN(c3cc(N4CCCC4)nc(N4CCCC4)n3)CC2)[C@@]2(C)C=CC(=O)C=C12	lipid peroxidation (MDA formation) in rat liver microsomes	%	80
CCN(CC)c1ccc(N(CC)CC)c(N2CCN(CC#C[C@]3(O)CC[C@H]4[C@@H]5C=C(C)C6=CC(=O)C=C[C@]6(C)[C@H]5[C@@H](O)C[C@@]43C)CC2)n1	lipid peroxidation (MDA formation) in rat liver microsomes	%	91
C[C@]12CCC(=O)C=C1C=C[C@@H]1[C@@H]2[C@@H](O)C[C@@]2(C)[C@H]1CC[C@@]2(O)C#CCN1CCN(c2cc(N3CCCC3)nc(N3CCCC3)n2)CC1	lipid peroxidation (MDA formation) in rat liver microsomes	%	86

---

Test system: lipid peroxidation (MDA formation) in brain homogenates
Assay: Test of formation of malondialdehyde (MDA), non-enzymatic lipid peroxidation triggered by ferrous sulfate in brain homogenates
Type: biochemical, S-D rats
Details: 1 * 10^-5 M, brain homogenate, 60 minutes at 37° C.

compound	percentage inhibition (MDA formation) (%)
C[C@]12CCC(=O)C=C1C=C[C@@H]1[C@@H]2[C@@H](O)C[C@@]2(C)[C@H]1CC[C@@]2(O)C#CCN1CCN(c2cc(N3CCCC3)nc(N3CCCC3)n2)CC1	-10.6
CCN(CC)c1ccc(N(CC)CC)c(N2CCN(CC#C[C@]3(O)CC[C@H]4[C@@H]5C=C(C)C6=CC(=O)C=C[C@]6(C)[C@H]5[C@@H](O)C[C@@]43C)CC2)n1	48.5
CCN(CC)c1ccc(N2CCN(CC#C[C@]3(O)CC[C@H]4[C@@H]5C=C(C)C6=CC(=O)C=C[C@]6(C)[C@H]5[C@@H](O)C[C@@]43C)CC2)nc1N(CC)CC	51.3
CC1=C[C@@H]2[C@H]([C@@H](O)C[C@@]3(C)[C@H]2CC[C@@]3(O)C#CCN2CCN(c3cc(N4CCCC4)nc(N4CCCC4)n3)CC2)[C@@]2(C)C=CC(=O)C=C12	28.0

---

Tested on: lipid peroxidation (MDA formation) in rat liver microsomes
Settings: 5*10^-6 M; liver microsomes of phenobarbital-pretreated rats, NADPH/carbon tetrachloride, pH 7.4, 15 minutes at 37° C.
The entries below are paired with their reported percentage inhibition (MDA formation).

compound	unit.info	percentage inhibition (MDA formation)
CC1=C[C@@H]2[C@H]([C@@H](O)C[C@@]3(C)[C@H]2CC[C@@]3(O)C#CCN2CCN(c3cc(N4CCCC4)nc(N4CCCC4)n3)CC2)[C@@]2(C)C=CC(=O)C=C12	%	61
CCN(CC)c1ccc(N(CC)CC)c(N2CCN(CC#C[C@]3(O)CC[C@H]4[C@@H]5C=C(C)C6=CC(=O)C=C[C@]6(C)[C@H]5[C@@H](O)C[C@@]43C)CC2)n1	%	85
CCN(CC)c1ccc(N2CCN(CC#C[C@]3(O)CC[C@H]4[C@@H]5C=C(C)C6=CC(=O)C=C[C@]6(C)[C@H]5[C@@H](O)C[C@@]43C)CC2)nc1N(CC)CC	%	89
C[C@]12CCC(=O)C=C1C=C[C@@H]1[C@@H]2[C@@H](O)C[C@@]2(C)[C@H]1CC[C@@]2(O)C#CCN1CCN(c2cc(N3CCCC3)nc(N3CCCC3)n2)CC1	%	75
